Tested on: Staphylococcus epidermidis
Assay: Antibacterial activity against Staphylococcus epidermidis ATCC 12228 by broth microdilution method
Format: functional
Catalogue of MIC readings, one per entry.
Hi! Could you send only the number? It should be in µg/mL, unit omitted.

Worked set:
CC(=O)NC[C@H]1CN(c2ccc(N(C)C3CCN(C(=O)/C=C/c4ccc5c(c4)OCO5)CC3)c(F)c2)C(=O)O1 8
CC(=O)NC[C@H]1CN(c2ccc(N3CCN(C(=O)CO)CC3)c(F)c2)C(=O)O1 2
CC(=O)NC[C@H]1CN(c2ccc(N(C)C3CCN(C(=O)/C=C/c4ccc([N+](=O)[O-])o4)CC3)c(F)c2)C(=O)O1 1
CC(=O)NC[C@H]1CN(c2ccc(N3CCOCC3)c(F)c2)C(=O)O1 2

State recorded MIC with Staphylococcus epidermidis, entry CC(=O)NC[C@H]1CN(c2ccc(N(C)C3CCN(C(=O)/C=C/c4ccc(O)cc4)CC3)c(F)c2)C(=O)O1 , no comment.
8
